Sourced from patent US9428504B2

# test.system: cloned human P2Y1 receptors (Homo sapiens (Human), UniProt P47900)
# Sequence (P47900 whole entry): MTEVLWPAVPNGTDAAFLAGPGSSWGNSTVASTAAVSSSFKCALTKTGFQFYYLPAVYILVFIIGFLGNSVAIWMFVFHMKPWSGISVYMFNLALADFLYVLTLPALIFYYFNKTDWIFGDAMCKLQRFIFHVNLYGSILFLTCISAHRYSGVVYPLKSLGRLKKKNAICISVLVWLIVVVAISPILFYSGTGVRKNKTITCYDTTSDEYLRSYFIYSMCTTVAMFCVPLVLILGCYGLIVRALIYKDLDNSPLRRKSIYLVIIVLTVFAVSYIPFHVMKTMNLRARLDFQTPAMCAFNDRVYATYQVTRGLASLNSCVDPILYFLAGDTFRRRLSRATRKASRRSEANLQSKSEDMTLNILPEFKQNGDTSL
# test.description: Binding Assay B: Scintillation Proximity Assay (SPA) for P2Y1 binding
# experimental.parameters: SPA, [33P] 2MeS-ADP displacement; read-out: P2Y1 Ki (nM) using binding assay B
Structures can show the parent of a compound that is named as a salt.
Reported Ki by item:

compound | Ki (nM)
CC(C)(C)CN1CCC2(CC1)CN(c1ccc(C#N)cc1NC(=O)Nc1ccc(OC(F)(F)F)cc1)c1c(O)ccc(Cl)c12 | 21.4
CC(C)(C)CN1CCC2(CC1)CN(c1ccccc1NC(=O)Nc1ccc(OC(F)(F)F)cc1)c1c(O)ccc(C#N)c12 | 5.7
CC(C)(C)CN1CCC2(CC1)CN(c1ccccc1NC(=O)Nc1nc3ccc(Cl)nc3s1)c1c(O)ccc(-c3nc4c(Cl)cccc4s3)c12 | 29.6
COC(=O)c1ccc(O)c2c1C1(CCN(CC(C)(C)C)CC1)CN2c1ccccc1NC(=O)Nc1ccc(OC(F)(F)F)cc1 | 9
CC(C)(C)CN1CCC2(CC1)CN(c1ccccc1NC(=O)Nc1nc3ccc(Cl)cc3s1)c1c(O)cc(F)c(F)c12 | 25.8
CC(C)(C)CN1CCC2(CC1)CN(c1ccccc1NC(=O)Nc1nc3c(s1)CSCC3)c1c(O)ccc(Cl)c12 [Example 49, TFA] | 6.5
CC(C)(C)CN1CCC2(CC1)CN(c1ccccc1NC(=O)Nc1ccc(C(C)(C)C)cc1)c1c(O)ccc(Cl)c12 | 9.7
CC(C)(C)CN1CCC2(CC1)CN(c1ccccc1NC(=O)Nc1ccc(OC(F)(F)F)cc1)c1c2ccc(F)c1O | 12.8
COc1ccc2nc(-c3ccc(O)c4c3C3(CCN(CC(C)(C)C)CC3)CN4c3ccccc3NC(=O)Nc3ccc(OC(F)(F)F)cc3)sc2c1 | 16.8
CC(C)c1nc(NC(=O)Nc2ccccc2N2CC3(CCN(CC(C)(C)C)CC3)c3c(C(F)(F)F)ccc(O)c32)cs1 | 6.6
CC(C)(C)CN1CCC2(CC1)CN(c1ccccc1NC(=O)Nc1nc3ccc(Cl)nc3s1)c1c(O)ccc(Cl)c12 | 6.8
CC(C)(C)CN1CCC2(CC1)CN(c1ccccc1NC(=O)Nc1csc(C(F)(F)F)n1)c1c(O)ccc(Cl)c12 | 4.9
CC(C)(C)CN1CCC2(CC1)CN(c1ccccc1NC(=O)Nc1ccc(OC(F)(F)F)cc1)c1c(O)c(F)cc(-c3ccc(Cl)cc3)c12 | 20.2

---

# test.system: cloned human P2Y1 receptors (Homo sapiens (Human))
# test.description: Binding Assay B: Scintillation Proximity Assay (SPA) for P2Y1 binding
# experimental.parameters: SPA, [33P] 2MeS-ADP displacement; read-out: P2Y1 Ki (nM) using binding assay B
Where a name gives a salt, the structure may show the parent alone.
Please assign class 0 whenever Ki is at or above 10 nM, and class 1 whenever it is below.

compound | class.assignment
Cc1ccc(NC(=O)Nc2ccccc2N2CC3(CCN(CC(C)(C)C)CC3)c3c(Cl)ccc(O)c32)cc1F | class 1
CC(C)(C)CN1CCC2(CC1)CN(c1ccccc1NC(=O)Nc1ccc(OC(F)(F)F)cc1)c1c(O)ccc(-c3nc4cc(F)ccc4s3)c12 | class 0
CC(C)(C)CN1CCC2(CC1)CN(c1ccccc1NC(=O)Nc1nc3ccc(Cl)cc3s1)c1c(O)ccc(-c3nc4cc(Cl)ccc4s3)c12 | class 0
CC(C)(C)CN1CCC2(CC1)CN(c1ccccc1NC(=O)Nc1nc3ccc(Cl)cc3s1)c1c(O)ccc(C#N)c12 [Example 83, trifluoroacetic acid salt] | class 1
CC(C)(C)CN1CCC2(CC1)CN(c1ccccc1NC(=O)Nc1csc(C(F)(F)F)n1)c1c(O)ccc(-c3nc4cc(Cl)ccc4s3)c12 | class 0
CC(C)(C)CN1CCC2(CC1)CN(c1ccccc1NC(=O)Nc1nc3c(s1)CN(C(=O)C(F)(F)F)CC3)c1c(O)ccc(Cl)c12 | class 0
CC(C)CN1CCc2nc(NC(=O)Nc3ccccc3N3CC4(CCN(CC(C)(C)C)CC4)c4c(Cl)ccc(O)c43)sc2C1 | class 0
CCSc1nsc(NC(=O)Nc2ccccc2N2CC3(CCN(CC(C)(C)C)CC3)c3c(C(F)(F)F)ccc(O)c32)n1 | class 1
CC(C)(C)CN1CCC(NC(=O)Nc2ccccc2N2CC3(CCN(CC(C)(C)C)CC3)c3c(C(F)(F)F)ccc(O)c32)CC1 | class 0
CC(C)(C)CN1CCC2(CC1)CN(c1ccccc1NC(=O)Nc1nc3c(s1)CCCC3)c1c(O)ccc(Cl)c12 [Example 45, TFA] | class 1
CC(C)(C)CN1CCC2(CC1)CN(c1ccccc1NC(=O)Nc1nccs1)c1c(O)ccc(C(F)(F)F)c12 | class 1
Cc1ccc2nc(NC(=O)Nc3ccccc3N3CC4(CCN(CC(C)(C)C)CC4)c4c(Cl)ccc(O)c43)sc2c1 | class 1
CC(C)(C)CN1CCC2(CC1)CN(c1ccccc1NC(=O)Nc1nc3ccc(F)nc3s1)c1c(O)cc(F)c(Cl)c12 | class 0
CC(C)(C)CN1CCC2(CC1)CN(c1ccccc1NC(=O)NC1CCC(C(C)(C)C)CC1)c1c(O)ccc(C(F)(F)F)c12 (centres unmarked) | class 1

---

# test.system: cloned human P2Y1 receptors (Homo sapiens (Human), UniProt P47900)
# test.description: Binding Assay B: Scintillation Proximity Assay (SPA) for P2Y1 binding
# experimental.parameters: SPA, [33P] 2MeS-ADP displacement; read-out: P2Y1 Ki (nM) using binding assay B
Please assign FALSE whenever Ki is at or above 10 nM, and TRUE whenever it is below.

given.smiles | class.assignment
CC(C)(C)CN1CCC2(CC1)CN(c1ccccc1NC(=O)Nc1ccc(OC(F)(F)F)cc1)c1c(O)cc(F)c(-c3nc4ccc(F)cc4s3)c12 | FALSE
COC(=O)c1ccc(O)c2c1C1(CCN(CC(C)(C)C)CC1)CN2c1ccccc1NC(=O)Nc1ccc(F)cc1F | TRUE
COc1ccc2nc(NC(=O)Nc3ccccc3N3CC4(CCN(CC(C)(C)C)CC4)c4c(F)ccc(O)c43)sc2n1 | TRUE
CC(C)(C)CN1CCC2(CC1)CN(c1ccccc1NC(=O)Nc1csc(Cl)n1)c1c(O)ccc(-c3nc4cc(F)ccc4s3)c12 | TRUE
CC(C)(C)CN1CCC2(CC1)CN(c1ccccc1NC(=O)Nc1ccc(OC(F)(F)F)cc1)c1c(O)cc(F)c(-c3ccc(Cl)cc3)c12 | FALSE
CC(C)(C)CN1CCC2(CC1)CN(c1ncccc1NC(=O)Nc1ccc(OC(F)(F)F)cc1)c1c(O)ccc(C(F)(F)F)c12 | TRUE
CC(C)(C)CN1CCC2(CC1)CN(c1ccccc1NC(=O)Nc1ccc(OC(F)(F)F)cc1)c1c(O)c(F)cc(-c3ccc(C(F)(F)F)cc3)c12 | FALSE
CC(C)(C)CN1CCC2(CC1)CN(c1ccccc1NC(=O)Nc1nc3ccc(F)cc3s1)c1c(O)cc(F)c(Cl)c12 | FALSE
COc1ccc2nc(NC(=O)Nc3ccccc3N3CC4(CCN(CC(C)(C)C)CC4)c4c(Cl)ccc(O)c43)sc2n1 | FALSE
Cc1nc(NC(=O)Nc2ccccc2N2CC3(CCN(CC(C)(C)C)CC3)c3c(C(F)(F)F)ccc(O)c32)cs1 | TRUE
CC(C)(C)CN1CCC2(CC1)CN(c1ccccc1NC(=O)Nc1nc3ccc(Cl)cc3s1)c1c(O)cc(F)c(-c3ccc(C(F)(F)F)nc3)c12 | FALSE
CC(C)CN1CCC2(CC1)CN(c1ccccc1NC(=O)Nc1nc3ccc(F)cc3s1)c1c(O)ccc(C(F)(F)F)c12 | FALSE
CC(C)(C)CN1CCC2(CC1)CN(c1ccccc1NC(=O)Nc1nc3ccc(F)cc3s1)c1c(O)cc(F)c(-c3nc4cc(Cl)ccc4s3)c12 | FALSE

---

# test.system: cloned human P2Y1 receptors (Homo sapiens (Human))
# test.description: Binding Assay B: Scintillation Proximity Assay (SPA) for P2Y1 binding
# experimental.parameters: SPA, [33P] 2MeS-ADP displacement; read-out: P2Y1 Ki (nM) using binding assay B
# Experimental: A SPA membrane binding assay was used to identify inhibitors of [^33P] […] Binding reactions were performed in 384-well OptiPlates (PerkinElmer Life Sciences, Cat #6007299) in a volume of 50 μL containing ˜15 fmol of P2Y1 receptor (1.7 μg of total protein), 0.3 nM [^33P] […] Reactions were allowed to proceed to completion at room temperature for 1 hour followed by centrifugation of the plate for 5 min. About 40 μL of the aqueous solution was aspirated. Plates were sealed and the [^33P]
Structures can show the parent of a compound that is named as a salt.
Reported Ki by item:

compound | Ki
CC(C)(C)CN1CCC2(CC1)CN(c1ccccc1NC(=O)Nc1ccc(C(C)(C)C)cc1)c1c2ccc(F)c1O | 9 nM
CCN(CC)S(=O)(=O)c1ccc(O)c2c1C1(CCN(CC(C)(C)C)CC1)CN2c1ccccc1NC(=O)Nc1nc2ccc(Cl)cc2s1 | 15.8 nM
CC(C)(C)CN1CCC2(CC1)CN(c1ccccc1NC(=O)Nc1nc3ccc(Cl)cc3s1)c1c(O)c(F)cc(Cl)c12 | 12.8 nM
COc1ccc2nc(NC(=O)Nc3ccccc3N3CC4(CCN(CC(C)(C)C)CC4)c4c(C(F)(F)F)ccc(O)c43)sc2c1 | 14.5 nM
Cc1ccc2nc(NC(=O)Nc3ccccc3N3CC4(CCN(CC(C)(C)C)CC4)c4c(C#N)ccc(O)c43)sc2c1 [Example 84, trifluoroacetic acid salt] | 11.8 nM
CC(C)(C)CN1CCC2(CC1)CN(c1ccccc1NC(=O)Nc1csc(Cl)n1)c1c(O)ccc(-c3nc4ccc(Cl)cc4s3)c12 | 7.1 nM
CC(C)(C)CN1CCC2(CC1)CN(c1ccccc1NC(=O)Nc1ccc(OC(F)(F)F)cc1)c1c(O)ccc(-c3nc4c(Cl)cccc4s3)c12 | 22.8 nM
CC(C)(C)CN1CCC2(CC1)CN(c1ccccc1NC(=O)Nc1nc3ccc(Cl)nc3s1)c1c(O)cc(F)c(Cl)c12 | 12.2 nM
CC(C)(C)CN1CCC2(CC1)CN(c1ccccc1NC(=O)Nc1ccc(F)cc1F)c1c(O)ccc(Cl)c12 | 9.6 nM
CC(C)(C)CN1CCC2(CC1)CN(c1ccccc1NC(=O)Nc1nc3ccc(F)cc3s1)c1c(O)ccc(Cl)c12 | 3.8 nM
CC(C)(C)CN1CCC2(CC1)CN(c1ccccc1NC(=O)Nc1ccc(C(C)(C)C)cc1)c1c(O)ccc(C(F)(F)F)c12 | 7.9 nM
CC(C)(C)CN1CCC2(CC1)CN(c1ccccc1NC(=O)Nc1csc(C(F)(F)F)n1)c1c(O)ccc(-c3nc4ccc(F)cc4s3)c12 | 12.4 nM
CC(C)(C)CN1CCC2(CC1)CN(c1cc(F)ccc1NC(=O)Nc1nc3ccc(F)cc3s1)c1c(O)ccc(Cl)c12 | 22.2 nM
